Target: Recombinant human KIF18A (1-467 His-tagged) protein (Homo sapiens)
Construct: Recombinant human KIF18A (1-467 His-tagged) protein; His
Sequence (Q8NI77 1-467): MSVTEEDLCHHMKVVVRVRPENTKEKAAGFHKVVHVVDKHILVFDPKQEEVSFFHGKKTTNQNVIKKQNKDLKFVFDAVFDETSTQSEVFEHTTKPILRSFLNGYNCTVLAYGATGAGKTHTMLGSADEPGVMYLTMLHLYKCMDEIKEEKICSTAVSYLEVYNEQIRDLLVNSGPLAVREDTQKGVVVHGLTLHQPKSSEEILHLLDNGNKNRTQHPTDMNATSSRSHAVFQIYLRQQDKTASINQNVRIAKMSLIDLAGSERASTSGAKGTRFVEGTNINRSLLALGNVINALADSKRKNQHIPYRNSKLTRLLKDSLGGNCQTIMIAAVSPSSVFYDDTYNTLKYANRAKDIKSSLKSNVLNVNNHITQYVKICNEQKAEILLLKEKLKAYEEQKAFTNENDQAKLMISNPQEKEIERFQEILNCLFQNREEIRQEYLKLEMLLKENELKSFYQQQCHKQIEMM
Sequence (P02550 whole entry partner): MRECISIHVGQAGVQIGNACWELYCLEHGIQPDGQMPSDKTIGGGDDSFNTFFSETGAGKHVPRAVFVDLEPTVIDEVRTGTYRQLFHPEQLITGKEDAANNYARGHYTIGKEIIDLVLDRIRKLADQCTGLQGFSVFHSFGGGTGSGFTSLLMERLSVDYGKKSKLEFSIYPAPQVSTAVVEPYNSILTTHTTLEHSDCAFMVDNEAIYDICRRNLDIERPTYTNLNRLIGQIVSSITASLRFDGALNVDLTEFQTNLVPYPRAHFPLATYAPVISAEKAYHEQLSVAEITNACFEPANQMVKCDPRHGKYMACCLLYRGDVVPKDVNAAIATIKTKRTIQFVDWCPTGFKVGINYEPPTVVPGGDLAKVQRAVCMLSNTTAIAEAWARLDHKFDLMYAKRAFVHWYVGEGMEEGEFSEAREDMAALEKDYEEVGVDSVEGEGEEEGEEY
Sequence (P02554 whole entry partner): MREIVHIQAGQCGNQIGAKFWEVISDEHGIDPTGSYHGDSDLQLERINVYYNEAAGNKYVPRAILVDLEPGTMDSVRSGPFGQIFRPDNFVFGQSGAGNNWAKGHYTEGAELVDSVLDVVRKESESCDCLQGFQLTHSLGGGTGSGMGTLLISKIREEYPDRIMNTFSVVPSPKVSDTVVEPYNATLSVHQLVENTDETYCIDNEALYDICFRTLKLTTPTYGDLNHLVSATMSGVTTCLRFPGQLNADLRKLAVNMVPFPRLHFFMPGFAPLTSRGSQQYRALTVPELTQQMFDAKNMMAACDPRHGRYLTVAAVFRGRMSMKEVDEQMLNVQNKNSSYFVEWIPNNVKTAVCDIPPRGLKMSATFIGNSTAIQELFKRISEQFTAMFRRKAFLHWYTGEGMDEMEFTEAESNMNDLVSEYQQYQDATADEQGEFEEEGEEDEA
Assay: KIF18A Enzyme Assay: microtubule-stimulated ATPase activity assay (ADP-Glo)
Conditions: KIF18A protein 30 nM, 30 μg/mL pig microtubules, ATP at Km 75 μM, ADP-Glo luminescence, RT
pIC50: −log10 of the molar value.
assayReadout: pIC50

compound	tgt	pIC50
CC(C)(C)NS(=O)(=O)c1cccc(NC(=O)c2ccc(S(=O)(=O)NC(C)(C)C)cc2N2CCC3(CC2)CC3)c1 [Example 100-13]	Recombinant human KIF18A (1-467 His-tagged) protein (Homo sapiens)	7.12
C[C@@H]1CN(c2cccc(NC(=O)c3ccc(NS(=O)(=O)CCO)cc3N3CCC4(CC3)CC4)c2F)CCO1 [Example 103-2]	Recombinant human KIF18A (1-467 His-tagged) protein (Homo sapiens)	7.00
CC(C)(C)NS(=O)(=O)c1cccc(NC(=O)c2ccc(NS(=O)(=O)C3(C)CC3)cc2N2CCC3(CC2)CC3)c1 [Example 102]	Recombinant human KIF18A (1-467 His-tagged) protein (Homo sapiens)	7.21

[A] CS(=O)(=O)c1ccc(C(=O)Nc2cccc3ccsc23)c(N2CCC3(CC2)CC3)c1 [Example 100-9]
[B] CC(C)(C)NS(=O)(=O)c1cccc(NC(=O)c2ccc(N3CCCS3(=O)=O)cc2N2CCC3(CC2)CC3)c1 [Example 102-6]
[C] CC(C)(O)COc1cccc(NC(=O)c2ccc(NS(=O)(=O)CCO)cc2N2CCC3(CC2)CC3)c1 [Example 106]
Ask | // sort entries: pIC50, high to low Provide your answer as the labels ordered per the instruction.
Reply | B, C, A
(B: 7.35, C: 7.11, A: 6.20)
